# test.description: Protein binding in mouse plasma
# Assay type: ADME, cell-free
# details: read-out: PPB (converted)
readout.type: fraction unbound
// keep it numeric: no unit symbol after the value

*Q* Any idea what fraction unbound was measured for CN[C@H](CNc1cc(F)c(S(=O)(=O)Nc2ncc(F)s2)cc1Cl)CC(C)(C)C.Cl ?
*A* 0.06

====

# test.description: Volume of distribution at steady state in rhesus monkey
# Assay type: ADME, Macaca mulatta
# details: in vivo, read-out: Vdss
readout.type: Vd (L/kg)
Answer in L/kg, number only, no unit symbol.

*Q* Param item = CN[C@H](CNc1cc(F)c(S(=O)(=O)Nc2ncc(F)s2)cc1Cl)CC(C)(C)C.Cl ; retrieve measured Vd.
*A* 0.3

====

# tgt: Sodium channel protein type 9 subunit alpha (Homo sapiens)
# test.description: Inhibition of human Nav1.7 alpha expressed in HEK293 cells incubated for 5 mins with 6 consecutive train pulses to -10 mV at 0.1 Hz and holding potential of -65 mV by Qube-automated patch clamp assay
# Type: cell-based
# details: hek293
readout.type: IC50

*Q* What IC50 appears in the records for this compound with Sodium channel protein type 9 subunit alpha (Homo sapiens)? O=S(=O)(Nc1nccs1)c1cc(Cl)c(NCC2CCCN2)cc1F (stereo in doubt; 7)
*A* > 34 µM

====

# test.description: Intrinsic Clearance in rhesus monkey
# Format: ADME, Macaca mulatta
readout.type: CLint scaled (mL/min/kg)
Please respond with the number in mL/min/kg and leave the unit unwritten.

*Q* Record request: CLint scaled value, item CN[C@H](CNc1cc(F)c(S(=O)(=O)Nc2ncc(F)s2)cc1Cl)CC(C)(C)C.Cl
*A* 610

====

# test.description: Protein binding in rhesus monkey plasma
# Format: ADME, cell-free, Macaca mulatta
# details: read-out: PPB (converted)
readout.type: fraction unbound
Answer as a number with no unit attached.

*Q* # query: fraction unbound of entry CN[C@H](CNc1cc(F)c(S(=O)(=O)Nc2ncc(F)s2)cc1Cl)CC(C)(C)C.Cl
*A* 0.02

====

# test.description: Oral bioavailability in dog
# Assay type: ADME, organism-based, Canis lupus familiaris
# details: in vivo
readout.type: bioavailability (%)
Report as a plain number; the unit % is understood.

*Q* Suppose we examine the molecule CN[C@H](CNc1cc(F)c(S(=O)(=O)Nc2ncc(F)s2)cc1Cl)CC(C)(C)C.Cl ; what bioavailability value has been reported?
*A* 25

====

# tgt: Sodium channel protein type 9 subunit alpha (Homo sapiens, UniProt Q15858)
# Sequence (Q15858 whole entry): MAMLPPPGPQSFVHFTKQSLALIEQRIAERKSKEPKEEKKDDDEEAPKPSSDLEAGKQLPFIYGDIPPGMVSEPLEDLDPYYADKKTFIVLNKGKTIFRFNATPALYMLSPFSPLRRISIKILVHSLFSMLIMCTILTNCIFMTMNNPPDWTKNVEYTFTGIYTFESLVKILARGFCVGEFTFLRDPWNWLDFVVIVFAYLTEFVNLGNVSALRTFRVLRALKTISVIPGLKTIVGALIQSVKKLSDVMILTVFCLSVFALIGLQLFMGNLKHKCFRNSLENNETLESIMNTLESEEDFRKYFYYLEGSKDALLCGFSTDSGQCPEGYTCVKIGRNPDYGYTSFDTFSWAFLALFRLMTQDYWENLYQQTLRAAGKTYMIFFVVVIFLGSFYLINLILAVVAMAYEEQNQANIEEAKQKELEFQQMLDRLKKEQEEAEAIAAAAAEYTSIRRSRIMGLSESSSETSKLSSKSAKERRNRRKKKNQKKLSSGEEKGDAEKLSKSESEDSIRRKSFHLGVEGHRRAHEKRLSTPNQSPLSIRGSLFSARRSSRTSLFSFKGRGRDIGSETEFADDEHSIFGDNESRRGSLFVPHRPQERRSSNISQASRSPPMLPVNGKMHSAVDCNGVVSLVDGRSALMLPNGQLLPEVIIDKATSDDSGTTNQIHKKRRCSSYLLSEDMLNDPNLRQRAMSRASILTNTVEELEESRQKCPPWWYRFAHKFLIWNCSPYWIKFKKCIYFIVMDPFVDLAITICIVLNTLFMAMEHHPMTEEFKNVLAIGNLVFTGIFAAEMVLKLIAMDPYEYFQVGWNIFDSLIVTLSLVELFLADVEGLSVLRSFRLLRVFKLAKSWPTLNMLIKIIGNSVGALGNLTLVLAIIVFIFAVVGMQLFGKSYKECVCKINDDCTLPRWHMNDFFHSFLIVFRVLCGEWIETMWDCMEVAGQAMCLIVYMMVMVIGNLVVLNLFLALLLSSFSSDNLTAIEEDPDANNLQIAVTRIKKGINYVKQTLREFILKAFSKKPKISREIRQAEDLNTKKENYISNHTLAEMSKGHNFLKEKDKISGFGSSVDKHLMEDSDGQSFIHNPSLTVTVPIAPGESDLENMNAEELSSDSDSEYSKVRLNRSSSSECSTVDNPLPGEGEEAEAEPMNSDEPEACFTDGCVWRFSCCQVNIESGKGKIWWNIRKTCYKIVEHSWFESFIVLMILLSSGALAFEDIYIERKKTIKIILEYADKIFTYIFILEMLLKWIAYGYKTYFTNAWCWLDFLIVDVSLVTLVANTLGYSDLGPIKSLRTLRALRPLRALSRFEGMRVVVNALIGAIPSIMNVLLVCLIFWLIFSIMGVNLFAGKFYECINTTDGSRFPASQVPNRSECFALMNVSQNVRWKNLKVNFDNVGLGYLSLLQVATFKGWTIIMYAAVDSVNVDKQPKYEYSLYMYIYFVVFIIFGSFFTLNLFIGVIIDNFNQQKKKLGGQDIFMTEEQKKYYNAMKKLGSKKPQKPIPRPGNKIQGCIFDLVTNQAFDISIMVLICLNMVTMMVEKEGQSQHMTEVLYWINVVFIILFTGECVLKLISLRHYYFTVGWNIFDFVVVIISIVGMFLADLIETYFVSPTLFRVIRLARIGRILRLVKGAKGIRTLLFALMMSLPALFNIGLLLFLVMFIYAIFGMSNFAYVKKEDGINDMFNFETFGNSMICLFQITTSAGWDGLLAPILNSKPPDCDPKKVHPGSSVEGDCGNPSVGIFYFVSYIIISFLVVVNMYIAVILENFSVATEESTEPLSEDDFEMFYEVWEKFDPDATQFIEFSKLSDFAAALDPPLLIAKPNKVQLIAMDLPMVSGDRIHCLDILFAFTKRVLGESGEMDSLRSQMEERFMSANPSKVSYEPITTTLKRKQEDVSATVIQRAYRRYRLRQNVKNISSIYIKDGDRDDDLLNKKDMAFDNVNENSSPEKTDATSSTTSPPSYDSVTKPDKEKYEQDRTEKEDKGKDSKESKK
# test.description: Inhibition of human Nav1.7 alpha expressed in HEK293 cells incubated for 5 mins with 6 consecutive train pulses to -10 mV at 0.1 Hz and holding potential of -65 mV by Qube-automated patch clamp assay
# Type: cell-based
Response field label takes 1 when IC50 is strictly below 1 µM and 0 in all other cases.

Reference set (2 entries):
>>> category("CN[C@H](CNc1cc(F)c(S(=O)(=O)Nc2ncc(F)s2)cc1Cl)CC1CC1")
0
>>> category("CN[C@H](CNc1cc(F)c(S(=O)(=O)Nc2ncc(F)s2)cc1Cl)C[Si](C)(C)C")
1

*Q* Report whether reported IC50 is lower than 1 µM (strictly) for CN[C@H](CNc1cc(F)c(S(=O)(=O)Nc2ncns2)cc1Cl)Cc1ccccc1
*A* 0

*Q* # strict comparison: is reported IC50 < 1 µM? input = CC1(CNc2cc(F)c(S(=O)(=O)Nc3nccs3)cc2Cl)CCCN1 (stereo in doubt; 5)
*A* 1
